Origin of the recorded values: patent US20090155285A1

Target: T1, mature human TGF-β2 (human, UniProt P61812 303-414)
T1 construct: Bought protein (RDI, Cat # RDI-1035); also called TGF-b2
T1 sequence: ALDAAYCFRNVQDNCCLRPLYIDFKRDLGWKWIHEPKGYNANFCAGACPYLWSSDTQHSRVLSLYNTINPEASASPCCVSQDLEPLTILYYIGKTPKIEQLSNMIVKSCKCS
Assay: BIAcore 2000 SPR, antibody captured on Protein A, TGF-β injected
pKd: −log10 of the molar value.
The reader will find reported pKd values listed item by item below.
MEASUREMENT_NAME: pKd

INSERT INTO assay_data (binder, measurement_name, operator, value_measured) VALUES
  ('mAb 12.7 (antibody, human IgG4 S228P, kappa, V domains shown, Full-length monoclonal antibody, made by linking the Fab to an IgG4 Fc region) VH: QVQLVQSGAEVKKPGASVKVSCKASGYTFTSEWMNWVRQAPGQGLEWMGQIFPALGSTNYNEMYEGRVTMTTDTSTSTAYMELRSLRSDDTAVYYCARGIGNYALDAMDYWGQGTLVTVSS VL: DIQMTQSPSSLSASVGDRVTITCRASESVDFYGNSFMHWYQQKPGKAPKLLIYLASNLESGVPSRFSGSGSGTDFTLTISSLQPEDFATYYCQQNIEDPLTFGGGTKVEIKR', 'pKd', '=', 12.33),
  ('mAb 4.17 (antibody, human IgG4 S228P, kappa, V domains shown, Full-length monoclonal antibody, made by linking the Fab to an IgG4 Fc region) VH: QVQLVQSGAEVKKPGASVKVSCKASGYTFTSYWMNWVRQAPGQGLEWMGQIFPFSGSTNYNEMFEGRVTMTTDTSTSTAYMELRSLRSDDTAVYYCARGIGNYALDAMDYWGQGTLVTVSS VL: DIQMTQSPSSLSASVGDRVTITCRASESVDFWGNSFMHWYQQKPGKAPKLLIYLASNLESGVPSRFSGSGSGTDFTLTISSLQPEDFATYYCQQNAEDPLTFGGGTKVEIKR', 'pKd', '=', 12.28),
  ('mAb 12.4 (antibody, human IgG4 S228P, kappa, V domains shown, Full-length monoclonal antibody, made by linking the Fab to an IgG4 Fc region) VH: QVQLVQSGAEVKKPGASVKVSCKASGYTFTSYWMNWVRQAPGQGLEWMGQIFPALGSTNYGEMFEGRVTMTTDTSTSTAYMELRSLRSDDTAVYYCARGIGNYALDAMDYWGQGTLVTVSS VL: DIQMTQSPSSLSASVGDRVTITCRASESVDWWGNSFMHWYQQKPGKAPKLLIYLASNLESGVPSRFSGSGSGTDFTLTISSLQPEDFATYYCQQNIEDPLTFGGGTKVEIKR', 'pKd', '=', 12.58),
  ('mAb 12.8 (antibody, human IgG4 S228P, kappa, V domains shown, Full-length monoclonal antibody, made by linking the Fab to an IgG4 Fc region) VH: QVQLVQSGAEVKKPGASVKVSCKASGYTFTSYWMNWVRQAPGQGLEWMGQIFPALGSTNYNEMFEGRVTMTTDTSTSTAYMELRSLRSDDTAVYYCARGIGNYALDAMDYWGQGTLVTVSS VL: DIQMTQSPSSLSASVGDRVTITCRASESVDWYGNSFMHWYQQKPGKAPKLLIYYASNLESGVPSRFSGSGSGTDFTLTISSLQPEDFATYYCQQNAEDPLTFGGGTKVEIKR', 'pKd', '=', 12.00),
  ('mAb 3.A (antibody, human IgG4 S228P, kappa, V domains shown, Full-length monoclonal antibody, made by linking the Fab to an IgG4 Fc region) VH: QVQLVQSGAEVKKPGASVKVSCKASGYTFTSYWMNWVRQAPGQGLEWMGQIFPASGSTNYGEMFEGRVTMTTDTSTSTAYMELRSLRSDDTAVYYCARGIGNYALDAMDYWGQGTLVTVSS VL: DIQMTQSPSSLSASVGDRVTITCRASESVDFWGNSFMHWYQQKPGKAPKLLIYLASNLESGVPSRFSGSGSGTDFTLTISSLQPEDFATYYCQQNIEDPLTFGGGTKVEIKR', 'pKd', '>', 11.40);
